Tested on: SRPK3;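 also: KINOMEscan kinase panel screen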
Conditions: concentration: 1 μM,replicates: in singlicate; n = 1
Give measured %Inh for each item. Keep answers brief.
Numbers only, in %.

COc1cccc(CNC(=O)NC2CCN(c3ccnc(Nc4cc(OC)c(OC)c(OC)c4)n3)C2)c1 (stereo not drawn)	73
Cc1cccc(-c2nc(Nc3ccncc3)c3sccc3n2)n1	24
Cn1ccc2ncnc(Oc3ccc(NC(=O)Nc4ccnc(C(F)(F)F)c4)c(Cl)c3)c21	0
Cn1cc(-c2cccc3c(N)c(C(N)=O)nnc23)cn1	39
C[C@@H](Oc1cc(-n2cnc3cc(-c4ccncc4)ccc32)sc1C(N)=O)c1ccccc1Cl	64

Continue with the molecule presented below.
Query: // returns reported %Inh for input `O=C(Nc1n[nH]c2cc(-c3ccco3)ccc12)C1CC1`
Response: 66
